test system: HepG2; experiment: cell viability relative to DMSO; higher = less toxic; details: 72 h; 10 nM
Reported values of cell viability for individual entries

| MOLECULE | cell viability / % |
| --- | --- |
| CCn1nc(C2CCN(C(=O)CCO)CC2)nc1-c1cnc(N)c(-c2nnc(C(C)(C)C)o2)n1 [AZD8835] | 101 |
| CC[C@@]1([C@H]2O[C@H]([C@H]3O[C@@](O)(CO)[C@H](C)C[C@@H]3C)C[C@H]2C)CC[C@H]([C@@]2(C)CC[C@]3(C[C@H](O)[C@@H](C)[C@@H]([C@H](C)[C@H](OC)[C@@H](C)C(=O)O)O3)O2)O1 [MONENSIN SODIUM] | 107 |
| Cc1ccc([N+](=O)[O-])cc1S(=O)(=O)N(C)C | 104 |
| c1ccc2nc(C3=NCCN3)cnc2c1 [BU-239] | 104 |
| O=S(=O)(NCCCCCCc1ccccc1)c1cccc2c(Cl)cccc12 [SC-9] | 96.6 |
| COc1ccc2c(c1)c(CC(=O)O)c(C)n2C(=O)c1ccc(Cl)cc1 [indomethacin] | 100 |
| O=C(Nc1ccc(Oc2ccc(Cl)cn2)c(Cl)c1)c1ccccn1 | 108 |
| CC1(C)O[C@H]2CC(=O)OC[C@]23[C@H]2CC[C@@]4(C)[C@H](c5ccoc5)OC(=O)[C@H]5O[C@]54[C@]2(C)C(=O)C[C@@H]13 [limonin] | 105 |
| OCc1ccc(O[C@@H]2O[C@H](CO)[C@@H](O)[C@H](O)[C@H]2O)cc1 [gastrodin] | 104 |
| O=C(O)CNC(=O)c1c(O)c2ccccc2n(Cc2ccccc2)c1=O [IOX2] | 106 |
| O=C(CCc1ccncc1)NNC(=O)N1Cc2ccccc2Oc2ccc(Cl)cc21 | 106 |
| CCN(CC)CC1CCN(c2ncc3ncnc(Nc4ccc(F)c(Cl)c4)c3n2)CC1 [BIBU-1361] | 100 |
| Clc1ccc(COC(Cn2ccnc2)c2ccc(Cl)cc2Cl)cc1 (centres undefined) [econazole] | 98.1 |
| CN(CCOc1ccc(CC2SC(=O)NC2=O)cc1)c1ccccn1 (centres undefined) [rosiglitazone] | 97.1 |
| CC(=O)N[C@H]1[C@H]([C@H](O)[C@H](O)CO)OC(O)(C(=O)O)C[C@@H]1O (mixture of isomers) [aceneuramic-acid] | 90.1 |
| CCOC(=O)c1c[nH]cn1 [C-751] | 99.6 |
| CC(=O)SCCC(=O)N1[C@H](C)CCC[C@@H]1C(=O)O [methiopril] | 99.3 |
| COc1ccc(/C=C/CCCCOc2ccc(C(=O)c3cccc(C(=O)O)c3)cc2CCC(=O)O)cc1 | 95.3 |
| O=C(NCCCN1CCOCC1)c1cnn2c(-c3ccccc3)cc(-c3ccccc3)nc12 [reversan] | 95.6 |
| O=C(N[C@@H]1Cc2ccccc2N(C[C@@H](O)CO)C1=O)c1cc2cc(Cl)sc2[nH]1 [GPi-688] | 104 |
| COC(=O)N[C@H](C(=O)N1CCC[C@H]1c1nc(-c2ccc3c(c2)O[C@@H](c2ccccc2)n2c-3cc3cc(-c4c[nH]c([C@@H]5CCCN5C(=O)[C@@H](NC(=O)OC)C(C)C)n4)ccc32)c[nH]1)C(C)C [elbasvir] | 88.7 |
| CC(=O)Nc1cccc(-n2c(=O)n(C3CC3)c(=O)c3c(Nc4ccc(I)cc4F)n(C)c(=O)c(C)c32)c1 [trametinib] | 45.5 |
| N[C@@H]1CCCCN(c2c(F)cc3c(=O)c(C(=O)O)cn(C4CC4)c3c2Cl)C1 [besifloxacin] | 92.2 |
| O=C1c2ccccc2C(=O)c2ccccc21 [anthraquinone] | 106 |
| CN1C2C=C(c3sccc3Br)CC1CC2 (centres undefined) [NS-3861] | 107 |
| COc1cc([C@@H]2c3cc4c(cc3[C@@H](O[C@@H]3O[C@@H]5CO[C@@H](c6cccs6)O[C@H]5[C@H](O)[C@H]3O)[C@H]3COC(=O)[C@H]23)OCO4)cc(OC)c1O [teniposide] | 86.1 |
| COC(=O)[C@@H]1C[C@H](OC(C)=O)C(=O)[C@H]2[C@@]1(C)CC[C@H]1C(=O)O[C@H](c3ccoc3)C[C@]21C [salvinorin-A] | 106 |
| O=C(NOCCO)c1cc(CN2OCCCC2=O)c(F)c(F)c1Nc1ccc(I)cc1F | 70 |
| CC(C)(C)N1CCC(c2ccccc2)(c2ccccc2)CC1 [budipine] | 95.8 |
| Cc1n[nH]c2ccc(-c3cncc(OC[C@@H](N)Cc4ccccc4)c3)cc12 | 95.8 |
| CCCCCCNC(=O)n1cc(F)c(=O)[nH]c1=O [Carmofur] | 104 |
| O=C(Nc1cc(C(F)(F)F)cc(C(F)(F)F)c1)Nc1c(Br)cc(Br)cc1-c1nnn[nH]1 [NS-5806] | 95.3 |
| NCC(CS(=O)(=O)O)c1ccc(Cl)cc1 (centres undefined) [saclofen] | 107 |
| CC1OC2(CS1)CN1CCC2CC1 (centres undefined) [cevimeline] | 97 |
